System: HCV replicon
Experiment: HCV replicon luciferase reporter assay
Assay type: cell-based
Conditions: Hepatitis C virus, Table 5; read-out: IC50
Quick reference for IC50 among some molecules
assay_metric: IC50

{"columns": ["structure_string", "tested_system", "value"],
 "data": [
  ["COC(=O)c1ccc(C(=O)NCCNc2nsc3ccccc23)nc1", "HCV replicon", "> 5 µM"],
  ["CCCNC(=O)c1ccc(C(=O)NCCNc2nsc3ccccc23)cc1", "HCV replicon", "> 5 µM"],
  ["CC(C)(C)OC(=O)N1CC=C(c2cccc(C(=O)NCCCNc3nsc4ccccc34)c2)CC1", "HCV replicon", "< 5 µM"],
  ["COc1ccc(-c2ccc(C(=O)NCCCNc3nsc4ccc(-c5ccccc5)cc34)cc2)cc1", "HCV replicon", "< 5 µM"],
  ["O=C(O)c1ccc(C(=O)NCCNc2nsc3ccccc23)nc1", "HCV replicon", "> 5 µM"]
]}
